# Tested on: 845751-090-R-J2-PDC tumor spheroid viability;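 note: spheroids exposed to compounds for 7 days before readout; CTG3D luminescence normalised so that 100% = DMSO vehicle control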
# Assay: Anticancer human tumor 845751-090-R-J2-PDC patient-derived head and neck squamous carcinoma cell line growth inhibition [IpAb]
# Condition: second compound 1 µM; first compound 0.0316 µM; active compounds read low; spheroids with HUVEC and MSC
Exercise: for every item that follows, state its recorded viability, T/C.
Answers are plain numbers, in %.

Answered examples (5):
# Molecule, viability, T/C [%]
records = [
    ("Cn1ncc(Cl)c1-c1cc(C(=O)NC(CN)Cc2cccc(F)c2)sc1Cl (stereo unspecified) + CCN1CCN(Cc2ccc(Nc3ncc(F)c(-c4cc(F)c5nc(C)n(C(C)C)c5c4)n3)nc2)CC1", 64.3),
    ("Cn1ncc(Cl)c1-c1cc(C(=O)NC(CN)Cc2cccc(F)c2)sc1Cl (stereo unspecified) + CC(C)NCC(C(=O)N1CCN(c2ncnc3c2C(C)CC3O)CC1)c1ccc(Cl)cc1", 39.3),
    ("CCCS(=O)(=O)Nc1ccc(F)c(C(=O)c2c[nH]c3ncc(-c4ccc(Cl)cc4)cc23)c1F + CC(C)NCC(C(=O)N1CCN(c2ncnc3c2C(C)CC3O)CC1)c1ccc(Cl)cc1", 46.5),
    ("C=CC(=O)N1CCN(c2nc(=O)n(-c3c(C)ccnc3C(C)C)c3nc(-c4c(O)cccc4F)c(F)cc23)C(C)C1 (stereo unspecified) + CCN1CCN(Cc2ccc(Nc3ncc(F)c(-c4cc(F)c5nc(C)n(C(C)C)c5c4)n3)nc2)CC1", 62.6),
    ("COc1c(OCCCN2CCOCC2)ccc2c3n(c(=NC(=O)c4cnc(N)nc4)nc12)CCN3 + CC(C)NCC(C(=O)N1CCN(c2ncnc3c2C(C)CC3O)CC1)c1ccc(Cl)cc1", 17.1),
]

// next item, viability, T/C requested
Inquiry: Record request: viability, T/C value, item CC(C)n1nc(-c2ccc3oc(N)nc3c2)c2c(N)ncnc21 + CCN1CCN(Cc2ccc(Nc3ncc(F)c(-c4cc(F)c5nc(C)n(C(C)C)c5c4)n3)nc2)CC1
Reply text: 45.5

Ref: PubChem BioAssay AID2060333
